Test: Plasma concentrations in infected mice after an oral dose (LC/MS/MS)
Type: in vivo
Study Conditions: CF-1, mouse, plasma; infected mice (n = 3), oral 100 mg/kg, 4 hours
Here, each record is paired with measured concentration at 4 h data.

{"Compound": "Cc1coc(-c2cc(F)c3c(c2)CC2(C(=O)NC(=O)NC2=O)[C@H]2[C@H](C)O[C@H](C)CN32)n1 (single isomer, unassigned)", "Units Of Measure": "ng/mL", "concentration at 4 h": 24500}
{"Compound": "CCc1coc(-c2cc3c(c(F)c2F)N2C[C@H](C)O[C@H](C)[C@H]2C2(C3)C(=O)NC(=O)NC2=O)n1 (racemic)", "Units Of Measure": "ng/mL", "concentration at 4 h": 22900}
{"Compound": "Cc1ncc(-c2cc3c(cc2F)N2C[C@@H](C)O[C@@H](C)[C@@H]2C2(C3)C(=O)NC(=O)NC2=O)cn1 [Comparator Compound from the Literature, reference compound]", "Units Of Measure": "ng/mL", "concentration at 4 h": 8530}
